// first-order primary biodegradation rate constant k lookup, one value per entry
# ASSAY PROCEDURE: first-order primary biodegradation rate constant k (sorption-corrected, fDis-corrected) (d-1); higher = faster biodegradation
# TEST PARAMETERS: river segment: Spain (ES) C_Contam; incubation temperature 24 °C
EXPERIMENTAL READOUT: first-order primary biodegradation rate constant k

# COMPOUND, OBS VALUE
measured = [
    ("CC(C)(C)C(=O)C(Oc1ccc(Cl)cc1)n1ccnc1 (stereo not drawn) [Climbazole]", 0.0396),
    ("CC(C)N(C(=O)COc1nnc(C(F)(F)F)s1)c1ccc(F)cc1 [Flufenacet]", 0.0442),
    ("Cc1cccc(Nc2ccccc2C(=O)O)c1C [Mefenamic acid]", 0.0725),
]

###

# ASSAY PROCEDURE: first-order primary biodegradation rate constant k (sorption-corrected, fDis-corrected) (d-1); higher = faster biodegradation
# TEST PARAMETERS: river segment: Switzerland (CH) C_Contam; incubation temperature 17 °C
EXPERIMENTAL READOUT: first-order primary biodegradation rate constant k

# MOLECULE, OBS VALUE
data = [
    ("CCCCCCCCCCN", 0.758),
    ("C=CCOc1ccccc1OCC(O)CNC(C)C (configuration not stated)", 0.0127),
    ("CCc1cccc(CC)c1N(COC)C(=O)CCl", 0.0903),
    ("CCOc1ccccc1OCCN[C@H](C)Cc1ccc(OC)c(S(N)(=O)=O)c1", 0.0347),
    ("Cc1ccc2n[nH]nc2c1", 0.0095),
    ("CCc1cccc(C)c1N(C(=O)CCl)C(C)COC (configuration not stated)", 0.0161),
    ("C/C(=N\\C#N)N(C)Cc1ccc(Cl)nc1", 0.031),
]

###

# ASSAY PROCEDURE: first-order primary biodegradation rate constant k (sorption-corrected, fDis-corrected) (d-1); higher = faster biodegradation
# TEST PARAMETERS: river segment: Germany (DE) T_Contam; incubation temperature 24 °C
Label TRUE for high-side first-order primary biodegradation rate constant k (at or above 0.4) and FALSE for low-side first-order primary biodegradation rate constant k (below it).

# COMPOUND, QUALITATIVE LABEL
data = [
    ("Cc1ccc(NC(=O)N(C)C)cc1Cl", "FALSE"),
    ("NS(=O)(=O)c1cc(C2(O)NC(=O)c3ccccc32)ccc1Cl (stereo not given)", "FALSE"),
    ("O=C1Nc2ccc(Cl)cc2C(c2ccccc2)=NC1O (stereo not given)", "FALSE"),
    ("CC(C)(Oc1ccc(CCNC(=O)c2ccc(Cl)cc2)cc1)C(=O)O [Bezafibrate]", "TRUE"),
    ("Cn1c(=O)c2c(ncn2C)n(C)c1=O", "TRUE"),
]

###

# ASSAY PROCEDURE: first-order primary biodegradation rate constant k (sorption-corrected, fDis-corrected) (d-1); higher = faster biodegradation
# TEST PARAMETERS: river segment: Germany (DE) T_Pris; incubation temperature 24 °C
EXPERIMENTAL READOUT: first-order primary biodegradation rate constant k

# MOLECULE, OBS VALUE
rows = [
    ("Cc1ccc(-c2nc3ccc(C)cn3c2CC(=O)N(C)C)cc1 [Zolpidem]", 0.0723),
    ("CC1(C(=O)Nc2ccc(O)c(Cl)c2Cl)CCCCC1 [Fenhexamid]", 0.165),
    ("COc1ccc(NC(=O)N(C)C)cc1Cl [Metoxuron]", 0.0159),
]

###

# ASSAY PROCEDURE: first-order primary biodegradation rate constant k (sorption-corrected, fDis-corrected) (d-1); higher = faster biodegradation
# TEST PARAMETERS: river segment: Greece (EL) G_Contam; incubation temperature 19 °C
// first-order primary biodegradation rate constant k lookup, one value per entry
EXPERIMENTAL READOUT: first-order primary biodegradation rate constant k

# COMPOUND, OBS VALUE
measured = [
    ("CCN1CCCC1CNC(=O)c1cc(S(=O)(=O)CC)c(N)cc1OC (stereo unspecified) [Amisulpride]", 0.129),
    ("CCCCCCCCCCN", 17.4),
    ("CNC(=C[N+](=O)[O-])NCCSCc1ccc(CN(C)C)o1", 1.42),
    ("OC(Cn1cncn1)(Cn1cncn1)c1ccc(F)cc1F", 0.311),
    ("Cc1cc(Cl)ccc1OC(C)C(=O)O (stereo unspecified)", 0.021),
    ("CCOc1ccccc1OCCN[C@H](C)Cc1ccc(OC)c(S(N)(=O)=O)c1", 1.15),
]

###

// first-order primary biodegradation rate constant k lookup, one value per entry
# ASSAY PROCEDURE: first-order primary biodegradation rate constant k (sorption-corrected, fDis-corrected) (d-1); higher = faster biodegradation
# TEST PARAMETERS: river segment: Spain (ES) C_Contam; incubation temperature 24 °C
EXPERIMENTAL READOUT: first-order primary biodegradation rate constant k

# MOLECULE, OBS VALUE
records = [
    ("CC1(C(=O)Nc2ccc(O)c(Cl)c2Cl)CCCCC1 [Fenhexamid]", 0.109),
    ("CC(C)c1ccc(NC(=O)N(C)C)cc1 [Isoproturon]", 0.0102),
    ("Cn1c(=O)c2c(ncn2C)n(C)c1=O [Caffeine]", 0.276),
    ("COc1cc(Cc2cnc(N)nc2N)cc(OC)c1OC [Trimethoprim]", 0.383),
    ("O=S(=O)(O)NC1CCCCC1 [Cyclamate]", 0.261),
    ("CC(C)NCC(O)COc1cccc2ccccc12 (stereo not given) [Propranolol]", 0.539),
    ("CC(C)(Oc1ccc(CCNC(=O)c2ccc(Cl)cc2)cc1)C(=O)O [Bezafibrate]", 0.169),
    ("COc1ccc2cc([C@H](C)C(=O)O)ccc2c1 [Naproxen]", 0.248),
    ("CCCCc1nc(Cl)c(CO)n1Cc1ccc(-c2ccccc2-c2nnn[nH]2)cc1 [Losartan]", 0.105),
    ("Cc1ccc(S(=O)(=O)O)cc1 [p-Toluenesulfonic acid]", 0.543),
    ("CC(C)N(C(=O)CCl)c1ccccc1 [Propachlor]", 0.218),
    ("CN(C)CCCC1(c2ccc(F)cc2)OCc2cc(C#N)ccc21 (stereo not given) [Citalopram]", 0.06),
    ("NCC1(CC(=O)O)CCCCC1 [Gabapentin]", 0.119),
    ("CCN(CC)CC(=O)Nc1c(C)cccc1C [Lidocaine]", 0.287),
    ("Cc1ccc(C)c(OCCCC(C)(C)C(=O)O)c1 [Gemfibrozil]", 0.26),
]

###

# ASSAY PROCEDURE: first-order primary biodegradation rate constant k (sorption-corrected, fDis-corrected) (d-1); higher = faster biodegradation
# TEST PARAMETERS: river segment: Germany (DE) H_Contam; incubation temperature 24 °C
EXPERIMENTAL READOUT: first-order primary biodegradation rate constant k

# COMPOUND, OBS VALUE
data = [
    ("CC(C)NCC(O)COc1ccc(COCCOC(C)C)cc1 (configuration not stated) [Bisoprolol]", 0.341),
    ("CC(=O)Nc1ccc(O)cc1 [Paracetamol]", 2.34),
    ("CCN1CCCC1CNC(=O)c1cc(S(=O)(=O)CC)c(N)cc1OC (configuration not stated) [Amisulpride]", 0.0111),
    ("CC(C)N(C(=O)COc1nnc(C(F)(F)F)s1)c1ccc(F)cc1 [Flufenacet]", 0.0427),
    ("OC(Cn1cncn1)(Cn1cncn1)c1ccc(F)cc1F [Fluconazole]", 0.024),
    ("CCCCC(CC)COCC(O)CO (configuration not stated) [3-((2-Ethylhexyl)oxy)propane-1,2-diol]", 1.43),
    ("C#CCN(C)Cc1ccccc1 [Pargyline]", 0.16),
]

###

# ASSAY PROCEDURE: first-order primary biodegradation rate constant k (sorption-corrected, fDis-corrected) (d-1); higher = faster biodegradation
# TEST PARAMETERS: river segment: Germany (DE) T_Contam; incubation temperature 24 °C
Label t for high-side first-order primary biodegradation rate constant k (at or above 0.2) and f for low-side first-order primary biodegradation rate constant k (below it).

# COMPOUND, QUALITATIVE LABEL
data = [
    ("COc1ccc2cc([C@H](C)C(=O)O)ccc2c1", "f"),
    ("O=S(=O)(O)NC1CCCCC1 [Cyclamate]", "t"),
    ("CNC(=C[N+](=O)[O-])NCCSCc1ccc(CN(C)C)o1", "t"),
    ("NCC1(CC(=O)O)CCCCC1", "f"),
    ("COc1c(Cl)ccc(Cl)c1C(=O)O", "f"),
    ("Cc1ccc2n[nH]nc2c1", "f"),
    ("Nc1nc(NC2CC2)c2ncn([C@H]3C=C[C@@H](CO)C3)c2n1", "t"),
    ("COCCc1ccc(OCC(O)CNC(C)C)cc1 (stereo not given)", "t"),
    ("CC(C)NCC(O)COc1ccc(CC(N)=O)cc1 (stereo not given)", "t"),
    ("CCCCC(=O)N(Cc1ccc(-c2ccccc2-c2nnn[nH]2)cc1)[C@H](C(=O)O)C(C)C", "t"),
    ("NC(=O)N1c2ccccc2C=Cc2ccccc21 [Carbamazepine]", "f"),
    ("O=C(O)Cc1ccccc1Nc1c(Cl)cccc1Cl", "f"),
    ("COC(=O)c1ccc(O)cc1", "f"),
    ("COC(=O)Nc1nc2ccccc2[nH]1", "f"),
    ("CC(C)(Oc1ccc(Cl)cc1)C(=O)O", "f"),
]
